- Protocol summary: LogP by HPLC on reversed phase columns (EEC directive 79/831 Annex V.A8)
- Format: physicochemical
- Settings: reversed phase HPLC column, method [a]: LC-UV, acidic range, 0.1% formic acid in water and acetonitrile as eluent
Would you kindly list chromatographic logP for each of these compounds?
Note: the reply should be a number with no unit written.

Request: Return chromatographic logP for the following compound: Fc1ccc(C2(Cn3cncc3Cl)OC2c2ccccc2Cl)cc1 (stereo not drawn) [I-01]
Result: 3.19

Request: Given the compound Fc1ccc(C2(Cn3cncc3F)OC2c2ccccc2Cl)cc1 (stereo not drawn) [I-02] , write its reported chromatographic logP.
Result: 2.62

Request: Specify chromatographic logP for N#Cc1cncn1CC1(c2ccc(F)cc2F)OC1c1ccccc1Cl (stereo not drawn) [I-09] and stop.
Result: 3.06

Request: Determine from records and report chromatographic logP for COc1ccc(C2(Cn3cncc3C#N)OC2c2ccccc2Cl)cc1 (stereo not drawn) [I-22]
Result: 3.26

Request: Give the reported chromatographic logP for this compound. N#Cc1cncn1CC1(c2ccc(Cl)cc2)OC1c1ccccc1F (stereo not drawn) [I-10]
Result: 3.41

Request: Kindly indicate its recorded chromatographic logP. Item: N#Cc1cncn1CC1(c2ccc(C(F)(F)F)cc2)OC1c1ccccc1Cl (stereo not drawn) [I-05]
Result: 3.96

Request: Input N#Cc1cncn1CC1(c2ccc(F)cc2)OC1c1cccc(Br)c1 (stereo not drawn) [I-23] , output reported chromatographic logP.
Result: 3.44

Request: Retrieve chromatographic logP measured for N#Cc1cncn1CC1(c2ccc(Cl)cc2)OC1c1ccccc1Cl (stereo not drawn) [I-06] and print it.
Result: 3.68

Request: Supply recorded chromatographic logP for N#Cc1cncn1CC1(c2ccc(Cl)cc2F)OC1c1ccccc1Cl (stereo not drawn) [I-25] here.
Result: 3.8

Request: Check the records and state chromatographic logP for N#Cc1cncn1CC1(c2ccc(F)cc2)OC1c1cccc(Cl)c1 (stereo not drawn) [I-21]
Result: 3.35

Request: Give chromatographic logP for N#Cc1cncn1CC1(c2ccc(F)cc2)OC1c1ccccc1Br (stereo not drawn) [I-13]
Result: 3.44

Request: Indicate the recorded chromatographic logP value for this compound: N#Cc1cncn1CC1(c2ccc(F)cc2)OC1c1ccccc1F (stereo not drawn) [I-12]
Result: 3.06

Request: Answer with the recorded chromatographic logP for the compound listed here: N#Cc1cncn1CC1(c2ccc(F)cc2)OC1c1cccnc1Cl (stereo not drawn) [I-16]
Result: 2.2

Request: Check the records and state chromatographic logP for N#Cc1cncn1CC1(c2ccc(OC(F)(F)F)cc2)OC1c1ccccc1Cl (stereo not drawn) [I-07]
Result: 4.11

Request: Name the recorded chromatographic logP of the compound listed here: N#Cc1cncn1CC1(c2ccc(Br)cc2)OC1c1ccccc1Cl (stereo not drawn) [I-08]
Result: 3.85

Request: Tell me its chromatographic logP given N#Cc1cncn1CC1(c2ccc(F)cc2)OC1c1ccc(Cl)cc1 (stereo not drawn) [I-24] as the entry.
Result: 3.37

Request: Tell us which chromatographic logP value is on record for N#Cc1cncn1CC1(c2ccc(Cl)cc2)OC1c1ccccc1Br (stereo not drawn) [I-11]
Result: 3.83

Request: Could you please provide reported chromatographic logP for N#Cc1cncn1C[C@]1(c2ccc(F)cc2)O[C@H]1c1ccccc1Cl (relative stereo) [I-03] ? Thanks!
Result: 3.33

Request: Find the measured chromatographic logP of N#Cc1cncn1CC1(c2ccc(F)cc2)OC1c1ccnc(Cl)c1 (stereo not drawn) [I-20] and report it.
Result: 2.5

Request: Query chromatographic logP for Fc1ccc(C2(Cn3cncc3F)OC2c2ccccc2Br)cc1 (stereo not drawn) [I-14]
Result: 2.66

Request: Give the value of chromatographic logP reported for the following: COc1ccc(C2(Cn3cncc3C#N)OC2c2ccccc2Cl)cn1 (stereo not drawn) [I-19]
Result: 2.86

Request: Output chromatographic logP of Fc1ccc(C2(Cn3cncc3F)OC2c2cccnc2Cl)cc1 (stereo not drawn) [I-15]
Result: 1.57

Request: Item N#Cc1cncn1C[C@]1(c2ccc(F)cc2)O[C@@H]1c1ccccc1Cl (relative stereo) [I-04] : provide chromatographic logP
Result: 2.98

Request: Report chromatographic logP for N#Cc1cncn1CC1(c2ccc(F)cc2Cl)OC1c1ccccc1Cl (stereo not drawn) [I-29]
Result: 3.71
